- Test system: A2058
- test-description: MTT assay, A2058
- Format: cell-based
- experimental-setup: human melanoma, 48 h incubation
Counter-ions that a name gives are not always drawn.
observation-type: IC50

{"compound": "O=C(COc1ccc(/C=C2\\SC(=O)N(Cc3cccc4cc5ccccc5nc34)C2=O)cc1)Nc1ccccc1 [8a·HCl]", "IC50": "> 50 µM"}
{"compound": "COc1cc(NC(=O)COc2ccc(/C=C3\\SC(=O)N(Cc4c5ccccc5nc5ccccc45)C3=O)cc2)cc(OC)c1 [7b·2HCl]", "IC50": "> 50 µM"}
{"compound": "COc1cc(/C=C2\\SC(=O)N(Cc3c4ccccc4nc4ccccc34)C2=O)ccc1OCC(=O)Nc1ccc([N+](=O)[O-])cc1.Cl.Cl [12d·2HCl]", "IC50": "> 50 µM"}
{"compound": "COc1cc(NC(=O)COc2ccc(/C=C3\\SC(=O)N(Cc4cccc5cc6ccccc6nc45)C3=O)cc2OC)cc(OC)c1 [13b·HCl]", "IC50": "> 50 µM"}
{"compound": "O=C(COc1ccc(/C=C2\\SC(=O)N(Cc3cccc4cc5ccccc5nc34)C2=O)cc1)Nc1cccc(C(F)(F)F)c1 [8f·HCl]", "IC50": "> 50 µM"}

Request: Identify the reported IC50 for the following entry. O=C(COc1ccc(/C=C2\SC(=O)N(Cc3c4ccccc4nc4ccccc34)C2=O)cc1)Nc1ccc([N+](=O)[O-])cc1 [7d·2HCl]
Result: > 50 µM

Request: Provide IC50 value for the following compound: COc1cc(NC(=O)COc2ccc(/C=C3\SC(=O)N(Cc4c5ccccc5nc5ccccc45)C3=O)cc2)cc(OC)c1OC [7c·2HCl]
Result: > 50 µM
